# pKd annotations
Molecular target: T1, human fibroblast activation protein (FAP) (human, UniProt Q12884 26-760)
T1 construct: also called human FAP; hFAP
T1 sequence: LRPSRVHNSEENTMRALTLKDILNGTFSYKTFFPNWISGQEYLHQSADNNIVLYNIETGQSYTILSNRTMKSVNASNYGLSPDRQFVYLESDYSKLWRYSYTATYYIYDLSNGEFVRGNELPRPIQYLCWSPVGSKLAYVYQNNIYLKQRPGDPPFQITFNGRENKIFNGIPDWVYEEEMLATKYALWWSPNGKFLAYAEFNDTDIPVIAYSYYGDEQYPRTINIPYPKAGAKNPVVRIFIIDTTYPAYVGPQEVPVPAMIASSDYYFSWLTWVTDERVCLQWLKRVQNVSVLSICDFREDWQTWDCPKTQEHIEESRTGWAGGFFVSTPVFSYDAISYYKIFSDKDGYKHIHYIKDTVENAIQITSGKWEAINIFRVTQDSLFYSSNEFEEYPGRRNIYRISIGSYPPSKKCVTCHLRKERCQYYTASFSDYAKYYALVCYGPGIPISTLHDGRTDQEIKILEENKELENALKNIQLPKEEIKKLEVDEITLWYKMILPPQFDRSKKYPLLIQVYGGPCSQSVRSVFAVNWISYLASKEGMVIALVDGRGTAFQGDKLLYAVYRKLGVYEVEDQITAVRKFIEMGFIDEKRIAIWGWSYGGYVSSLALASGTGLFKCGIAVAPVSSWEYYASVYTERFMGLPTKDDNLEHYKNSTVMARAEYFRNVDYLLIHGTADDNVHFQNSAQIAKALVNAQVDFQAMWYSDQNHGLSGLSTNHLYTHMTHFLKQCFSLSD
Test: BLI (Octet), kinetics to human FAP, pre TCO conjugation
Procedure: Using the BLI technology on Octet system the binding kinetics towards human FAP were determined for each of the five VHHs pre- and post-TCO conjugation.
Notebook: values listed as pKd are -log10 of the concentration (mol/L).

Consider the worked cases shown below.
>>> assayvalue("VHH7 (VHH, Anti-FAP VHH, tested before TCO conjugation; also called unconjugated VHH7) VHH: QVQLQESGGGLVQAGGSLRLSCTASGTFSGRNAMAWYRQAPGKRRELVAGIRSDDSTNYVDSVKGRFTISRDNAKNTVYLQMNSLRPEDTAVYYCNLWPPVIGAGFGSWGQGTQVTVSS")
10.09
>>> assayvalue("VHH9 (VHH, Anti-FAP VHH, tested before TCO conjugation; also called unconjugated VHH9) VHH: QVQLQESGGGLVQSGGSLRLSCVASGSISSINAMGWYRQAPGNKREWVAGITSGGSTNYADAVLGRFSIFRDNPKNTVYLQMNSLKPEDTAVYYCNTWPPSTFGSWGQGTQVTVSS")
9.34
>>> assayvalue("VHH8 (VHH, Anti-FAP VHH, tested before TCO conjugation; also called unconjugated VHH8) VHH: QVQLQESGGGTVQPGGSLRLSCAASGISVSIASMAWYRQAPGKQRELVAGIISGGSTNYADSVKGRFTISRDNAKKVVLLQMNSLKPEDTAVYYCNTYPPFVGPGATATWGQGTQVTVSS")
9.17
>>> assayvalue("VHH6 (VHH, Anti-FAP VHH, tested before TCO conjugation; also called unconjugated VHH6) VHH: DVQLVESGGGLVQAGGSLRLSCAVSGSISSANSMGWYRQAPGKQRDVVAGLTTGGRSHYADSVKGRFTISRDNAKNTVYLQMNSLKAEDTAVYYCNLWPPVQGYWGQGTQVTVSS")
10.26

Need pKd of VHH1 (VHH, Anti-FAP VHH, tested before TCO conjugation; also called VHH VHH1; unconjugated VHH1) VHH: DVQLVESGGGLVQPGGSLRLSCVASGRLSSSNSMAWYRQVPGKRRELVAGITGGGETNYADFVGGRFTISRDNAKNGLYLQLNGLKPEDTAAYYCNFWPPLINYWGQGTQVTVSS , thanks.
10.32
